# assay.comment: AUC (0 to 72 hrs) in Sprague-Dawley rat at 2.5 mg/kg, po
# Type: ADME, organism-based
# Design: time < 72 hr, dose 2.5 mg/kg, route oral
# protocol.conditions: plasma
quantity.measured: AUC(0-t) at 72 h

line_notation=CCS(=O)(=O)Nc1cccc(-c2cc(=O)n(-c3ccc(Cl)c(Cl)c3)nc2C)c1 result="26800 ng·h/mL"

* * *

Below is a list of entries, each paired with its recorded IC50 value.
# target.desc: Androgen receptor (Homo sapiens)
# Sequence (P10275 whole entry): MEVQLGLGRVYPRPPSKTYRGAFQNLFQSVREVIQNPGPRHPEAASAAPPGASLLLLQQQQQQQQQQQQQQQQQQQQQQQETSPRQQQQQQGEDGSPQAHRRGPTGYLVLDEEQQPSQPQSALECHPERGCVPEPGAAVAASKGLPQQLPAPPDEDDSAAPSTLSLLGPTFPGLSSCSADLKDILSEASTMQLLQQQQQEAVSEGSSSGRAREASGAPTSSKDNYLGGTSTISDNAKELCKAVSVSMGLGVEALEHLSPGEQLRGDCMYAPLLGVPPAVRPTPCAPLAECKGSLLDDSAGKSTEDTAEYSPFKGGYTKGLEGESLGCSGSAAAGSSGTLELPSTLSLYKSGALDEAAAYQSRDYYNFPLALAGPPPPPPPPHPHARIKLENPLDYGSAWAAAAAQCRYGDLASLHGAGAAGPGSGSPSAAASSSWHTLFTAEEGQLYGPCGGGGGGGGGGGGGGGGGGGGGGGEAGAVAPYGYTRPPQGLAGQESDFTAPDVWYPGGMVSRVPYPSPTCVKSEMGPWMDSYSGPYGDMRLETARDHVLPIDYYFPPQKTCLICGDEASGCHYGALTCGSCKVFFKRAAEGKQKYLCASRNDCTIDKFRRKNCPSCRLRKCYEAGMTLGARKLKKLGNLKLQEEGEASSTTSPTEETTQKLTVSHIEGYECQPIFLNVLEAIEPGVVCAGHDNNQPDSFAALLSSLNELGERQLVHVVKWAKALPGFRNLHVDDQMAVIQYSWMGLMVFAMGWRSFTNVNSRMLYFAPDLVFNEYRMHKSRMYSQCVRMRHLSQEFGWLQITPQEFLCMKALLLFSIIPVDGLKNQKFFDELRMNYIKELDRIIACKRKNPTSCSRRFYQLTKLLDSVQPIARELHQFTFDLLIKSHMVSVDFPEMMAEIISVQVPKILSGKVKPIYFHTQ
# assay.comment: Inhibition of androgen receptor in human LNCAP cells after 1 day by luciferase reporter gene assay
quantity.measured: IC50 (µM)

line_notation=CCS(=O)(=O)Nc1cccc(-c2cc(=O)n(-c3ccc(F)c(Cl)c3)nc2C)c1 unit_string=µM numeric_result=5.07
line_notation=CCS(=O)(=O)Nc1cccc(-c2cc(=O)n(-c3ccc(C#N)cc3)nc2C)c1 unit_string=µM numeric_result=6.26
line_notation=CCS(=O)(=O)Nc1cccc(-c2cc(=O)n(-c3cc(Cl)cc(Cl)c3)nc2C)c1 unit_string=µM numeric_result=13.2
line_notation=CCS(=O)(=O)Nc1cccc(-c2cc(=O)n(-c3ccc(Cl)c(Cl)c3)nc2C)c1 unit_string=µM numeric_result=2.65
line_notation=CCS(=O)(=O)Nc1cccc(-c2cc(=O)n(-c3ccc4ccccc4c3)nc2C)c1 unit_string=µM numeric_result=9.76
